Consider the following binders and their measured Anti-PSMA Fab (SEQ ID NOs: 19, 20) signal readings.
# Study target: T1, Anti-PSMA Fab (SEQ ID NOs: 19, 20)
# T1 construct: also called 006 PSMA Fab
# Test summary: phage binding ELISA; clonal phage supernatant on biotinylated PSMA Fab captured on neutravidin plate; anti-M13-HRP detection
Property measured: Anti-PSMA Fab (SEQ ID NOs: 19, 20) signal

INSERT INTO assay_data (binder, recorded_result) VALUES
  ('WENWCRPEWMCTGL [Phage-1940]', 1.95),
  ('WENWCTPRWMCEGF [Phage-1945]', 1.94),
  ('FPKWCTPAWMCERS [Phage-1937]', 1.96),
  ('WPKWCTPPWMCFQD [Phage-1936]', 1.96);
